Kindly state peptide ELISA signal (no name or unit printed) for each of the entries shown.
Molecular target: T1, Tau peptide Start 417 Stop 436
T1 peptide: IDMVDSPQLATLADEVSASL
Test: Pepscan ELISA on an array of linear 20-mer Tau 441 peptides
Set-up: unit not given here
Give bare numbers.

# annotated cases, reported peptide ELISA signal (no name or unit printed) shown
1) hTau60 monoclonal antibody (recombinant, mouse IgG2a/kappa) (antibody, V domains shown, also called hTau60 (PT1B469)) VH: EVQLQQSGPELVKPGTSVKISCKVFGYTFTDYYMNWVKQSHGKSLEWIGDINPDNGETTYNQKFKGKATLTVDKSSSTAYMELRSLTSEDSAVYYCAKGATFVYWGQGTLVTVSA VL: DVVMTQTPLSLPVSLGDQASISCISSQSLVHSTGTTFLHWFLQKPGQSPKLLIYKVSNRFSGVPDRFSGSGSGTDFTLKISRVEAEDLGFYFCSQSTYFPLTFGSGTKLEIKR = 48
2) PT66 monoclonal antibody (recombinant, mouse IgG2a/kappa) (antibody, V domains shown, also called PT66 (PT1B545)) VH: QVQLQQPGAELVKPGASVKMSCKASGYTFTSYWITWVKQRPGQGLEWIGDIHPGRGSTKSNEKFKSKATLTVDTSSSTAYMQFSSLTSEDSAVYYCARRWGFDYWGQGTTLTVSS VL: DIVITQDELSNPVTSGESVSISCRSSKSLLYKDGKTYLNWFLQRPGQSPQLLIYLMSTRASGVSDRFSGSGSGTDFTLEISRVKAEDVGVYYCQQLVDYPLTFGAGTKLELKR = 2940

# input for lookup
peptide ELISA signal (no name or unit printed) for PT81 monoclonal antibody (recombinant, mouse IgG2a/kappa) (antibody, V domains shown) VH: QVQLQQPGAELVRPGASVILSCKASGYTFTNSWIHWVKQRPGRVLEWIGRIDPNSGGTRYNENFKSKATLTVDKPSSTAYMQLSSLTSEDSAVYFCSRGVLHDYWGQGTTLTVSS VL: DIVITQDELSNPVTSGESVSISCRSSKSLLYKDGKTYLNWFLQRPGQSPQLLIYLMSTRASGVSDRFSVSGSGTDFTLEISRVQAEDVGVYYCQQLVEYPYTFGGGTKLEIKR ?
2800
